These measurements were taken from the NIST ThermoML archive (doi:10.1016/j.jct.2017.08.024).

Here, each record is paired with measured surface tension liquid-gas data.
- details: 313.2 K, wilhelmy plate
State just the number; it will be interpreted in mN/m.

Would you please look over these solved cases?
{"columns": ["compound", "surface tension liquid-gas (mN/m)"],
 "data": [
  ["OCCNCCO [diethanolamine]", 44.1],
  ["CO [methanol]", 20.9]
]}

surface tension liquid-gas measured on NCCO [2-aminoethan-1-ol] = 45.9

surface tension liquid-gas measured on O [water] = 69.4

* * *

- details: 323.2 K, wilhelmy plate
Here, each record is paired with measured surface tension liquid-gas data.
State just the number; it will be interpreted in mN/m.

Would you please look over these solved cases?
{"columns": ["smiles_representation", "property", "test_result"],
 "data": [
  ["NCCO", "surface tension liquid-gas", 44.2],
  ["O", "surface tension liquid-gas", 67.7],
  ["CO", "surface tension liquid-gas", 20]
]}

Moving on to another compound below.
surface tension liquid-gas measured on OCCNCCO = 42.8
